Target: T1, human LAG3 (form used in Octet, Biacore and HDX-MS not given) (human, UniProt P18627 23-450, limits assumed)
T1 sequence (looked up): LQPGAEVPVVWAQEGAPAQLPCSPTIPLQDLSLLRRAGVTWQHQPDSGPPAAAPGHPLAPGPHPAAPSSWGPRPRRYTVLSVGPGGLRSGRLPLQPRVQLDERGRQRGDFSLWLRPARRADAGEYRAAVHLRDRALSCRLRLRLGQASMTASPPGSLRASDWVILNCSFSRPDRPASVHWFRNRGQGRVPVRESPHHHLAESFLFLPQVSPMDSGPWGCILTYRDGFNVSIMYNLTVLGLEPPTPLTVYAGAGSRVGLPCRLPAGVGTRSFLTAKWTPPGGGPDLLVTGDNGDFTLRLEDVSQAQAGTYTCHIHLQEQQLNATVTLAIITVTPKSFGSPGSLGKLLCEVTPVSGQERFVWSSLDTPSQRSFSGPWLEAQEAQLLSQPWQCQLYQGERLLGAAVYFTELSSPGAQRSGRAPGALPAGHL
Assay: BLI (Octet)
// reported kon for each item listed
# output: bare number, implied unit M⁻¹ s⁻¹

Request: Need kon, item hu023.08 (antibody, human IgG4, V domains shown, humanized from 023c) VH: QVQLVQSGPEVKKPGASVKVSCKASGYTFTESPMNWVRQAPGQGFEWMGIIYTDTGEPTYAEEFKGRVTMTLDTSTSTVYMELSSLRSEDTAVYFCASDYGSILYWYFDVWGQGTLVTVSS VL: DIQMTQSPSSLSASVGDRVTITCKASQDVSTAVAWYQQKPGKSPKLLIYSASYRYTGVPSRFSGSGSGTDFTFTISSLQPEDFATYYCQQHYNAPPTFGQGTKLEIK
Response: 318000

Request: Another: hu023.05 (antibody, human IgG4, V domains shown, humanized from 023c) VH: QVQLVQSGAEVKKPGASVKVSCKASGYTFTESPMNWVRQAPGQGFEWMGIIYTDTGEPTYAEEFKGRVTMTRDTSTSTVYMELSSLRSEDTAVYFCASDYGSILYWYFDVWGQGTLVTVSS VL: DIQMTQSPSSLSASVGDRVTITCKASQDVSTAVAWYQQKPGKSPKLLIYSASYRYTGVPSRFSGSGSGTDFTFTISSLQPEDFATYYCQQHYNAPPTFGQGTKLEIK
Response: 321000
